measured property: melting point

Examples with answers:
Cc1cc(OCc2ccccc2)c2cc(C(=O)N(C)C)[nH]c2c1    205 to 207 °C
CC1=CCC(O)(C(C)(C)Sc2ccccc2)CC1 (stereo unspecified)    73 to 74 °C
CC(=O)N1CCC(=O)C(C2c3ccccc3CCc3ccccc32)C1 (stereo unspecified)    107 to 109 °C
Cc1nc(Cl)c(C#N)c2c1CCCC2    98 °C
COc1cccc2sc3cc(=O)ccc-3nc12    206 to 207 °C

Exercise: May I ask what melting point has been recorded for O=C(O)CCCNC(=O)c1nc(Cl)c(Cl)[nH]1 ?
Key: 285 °C
